- Tested on: HepG2 (hepatocellular carcinoma) cell line
- experimentalContext: human
Reported SI HepG2/D6 by item:

[
  {
    "compoundSmiles": "CC(=O)O[C@H]1C[C@H]2[C@@H]([C@H](OC(C)=O)C[C@@H]3C[C@H](NS(C)(=O)=O)CC[C@@]32C)[C@@H]2CC[C@H]([C@H](C)CCCNCCNc3ccnc4cc(Cl)ccc34)[C@@]12C",
    "SI HepG2/D6": "131/301/222"
  },
  {
    "compoundSmiles": "CC(=O)N[C@@H]1CC[C@@]2(C)[C@@H](C1)C[C@@H](OC(C)=O)[C@@H]1[C@@H]2C[C@H](OC(C)=O)[C@]2(C)[C@@H]([C@H](C)CCCNCCCNc3ccnc4cc(Cl)ccc34)CC[C@@H]12",
    "SI HepG2/D6": "55/114/51"
  },
  {
    "compoundSmiles": "CC(=O)O[C@H]1C[C@H]2[C@@H]([C@H](OC(C)=O)C[C@@H]3C[C@H](O)CC[C@@]32C)[C@@H]2CC[C@H]([C@H](C)CCCNCCCCCCNc3ccnc4cc(Cl)ccc34)[C@@]12C",
    "SI HepG2/D6": "60/56/50"
  },
  {
    "compoundSmiles": "CC(=O)O[C@H]1C[C@H]2[C@@H]([C@H](OC(C)=O)C[C@@H]3CC(=O)CC[C@@]32C)[C@@H]2CC[C@H]([C@H](C)CCCNCCCNc3ccnc4cc(Cl)ccc34)[C@@]12C",
    "SI HepG2/D6": "161/182/121"
  },
  {
    "compoundSmiles": "CC(=O)O[C@@H]1CC[C@@]2(C)[C@@H](C1)C[C@@H](OC(C)=O)[C@@H]1[C@@H]2C[C@H](OC(C)=O)[C@]2(C)[C@@H]([C@H](C)CCCNCCCCCCNc3ccnc4cc(Cl)ccc34)CC[C@@H]12",
    "SI HepG2/D6": "47/29/25"
  },
  {
    "compoundSmiles": "CC(=O)O[C@H]1C[C@H]2[C@@H]([C@H](OC(C)=O)C[C@@H]3C[C@H](N)CC[C@@]32C)[C@@H]2CC[C@H]([C@H](C)CCCN(C)CCCNc3ccnc4cc(Cl)ccc34)[C@@]12C",
    "SI HepG2/D6": "45/44/50"
  },
  {
    "compoundSmiles": "CC(=O)O[C@H]1C[C@H]2[C@@H]([C@H](OC(C)=O)C[C@@H]3C[C@H](NS(C)(=O)=O)CC[C@@]32C)[C@@H]2CC[C@H]([C@H](C)CCCNCCCNc3ccnc4cc(Cl)ccc34)[C@@]12C",
    "SI HepG2/D6": "130/119/147"
  },
  {
    "compoundSmiles": "CC(=O)O[C@H]1C[C@H]2[C@@H]([C@H](OC(C)=O)C[C@@H]3C[C@H](N)CC[C@@]32C)[C@@H]2CC[C@H]([C@H](C)CCCN(CCC[C@@H](C)[C@H]3CC[C@H]4[C@@H]5[C@H](OC(C)=O)C[C@@H]6C[C@H](N)CC[C@]6(C)[C@H]5C[C@H](OC(C)=O)[C@]34C)CCNc3ccnc4cc(Cl)ccc34)[C@@]12C",
    "SI HepG2/D6": "21/19/19"
  },
  {
    "compoundSmiles": "CC(=O)O[C@@H]1CC[C@@]2(C)[C@@H](C1)C[C@@H](OC(C)=O)[C@@H]1[C@@H]2C[C@H](OC(C)=O)[C@]2(C)[C@@H]([C@H](C)CCCNCCCNc3ccnc4cc(Cl)ccc34)CC[C@@H]12",
    "SI HepG2/D6": "104/101/67"
  },
  {
    "compoundSmiles": "CC(=O)O[C@H]1C[C@H]2[C@@H]([C@H](OC(C)=O)C[C@@H]3C[C@H](N(C)C)CC[C@@]32C)[C@@H]2CC[C@H]([C@H](C)CCCNCCNc3ccnc4cc(Cl)ccc34)[C@@]12C",
    "SI HepG2/D6": "714/333/435"
  },
  {
    "compoundSmiles": "CC(=O)O[C@@H]1CC[C@@]2(C)[C@@H](C1)C[C@@H](OC(C)=O)[C@@H]1[C@@H]2C[C@H](OC(C)=O)[C@]2(C)[C@@H]([C@H](C)CCCNCCCCNc3ccnc4cc(Cl)ccc34)CC[C@@H]12",
    "SI HepG2/D6": "107/55/47"
  },
  {
    "compoundSmiles": "CC(=O)O[C@H]1C[C@H]2[C@@H]([C@H](OC(C)=O)C[C@@H]3C[C@H](O)CC[C@@]32C)[C@@H]2CC[C@H]([C@H](C)CCCNCCNc3ccnc4cc(Cl)ccc34)[C@@]12C",
    "SI HepG2/D6": "415/938/407"
  },
  {
    "compoundSmiles": "CC(=O)O[C@H]1C[C@H]2[C@@H]([C@H](OC(C)=O)C[C@@H]3C[C@H](NC(=O)OC(C)(C)C)CC[C@@]32C)[C@@H]2CC[C@H]([C@H](C)CCCNCCNc3ccnc4cc(Cl)ccc34)[C@@]12C",
    "SI HepG2/D6": "1743/531/464"
  },
  {
    "compoundSmiles": "CC(=O)O[C@H]1C[C@H]2[C@@H]([C@H](OC(C)=O)C[C@@H]3C[C@H](N)CC[C@@]32C)[C@@H]2CC[C@H]([C@H](C)CCCNCCCNc3ccnc4cc(Cl)ccc34)[C@@]12C",
    "SI HepG2/D6": "54/75/43"
  },
  {
    "compoundSmiles": "CC(=O)O[C@H]1C[C@H]2[C@@H]([C@H](OC(C)=O)C[C@@H]3C[C@H](NC(=O)OC(C)(C)C)CC[C@@]32C)[C@@H]2CC[C@H]([C@H](C)CCCN(C)CCNc3ccnc4cc(Cl)ccc34)[C@@]12C",
    "SI HepG2/D6": "293/264/144"
  },
  {
    "compoundSmiles": "CC(=O)O[C@H]1C[C@H]2[C@@H]([C@H](OC(C)=O)C[C@@H]3CC(=O)CC[C@@]32C)[C@@H]2CC[C@H]([C@H](C)CCCNCCNc3ccnc4cc(Cl)ccc34)[C@@]12C",
    "SI HepG2/D6": "299/571/109"
  },
  {
    "compoundSmiles": "CC(=O)O[C@H]1C[C@H]2[C@@H]([C@H](OC(C)=O)C[C@@H]3CC(=O)CC[C@@]32C)[C@@H]2CC[C@H]([C@H](C)CCCNCCCCCCNc3ccnc4cc(Cl)ccc34)[C@@]12C",
    "SI HepG2/D6": "30/27/25"
  }
]

====

Reported SI HepG2/W2 by item:
- Test system: HepG2 (hepatocellular carcinoma) cell line
- experimentalContext: human

[
  {
    "compound": "CC(=O)O[C@H]1C[C@H]2[C@@H]([C@H](OC(C)=O)C[C@@H]3C[C@H](N(C)C)CC[C@@]32C)[C@@H]2CC[C@H]([C@H](C)CCCNCCNc3ccnc4cc(Cl)ccc34)[C@@]12C",
    "system": "HepG2 (hepatocellular carcinoma) cell line",
    "SI HepG2/W2": "714/333/435"
  },
  {
    "compound": "CC(=O)O[C@@H]1CC[C@@]2(C)[C@@H](C1)C[C@@H](OC(C)=O)[C@@H]1[C@@H]2C[C@H](OC(C)=O)[C@]2(C)[C@@H]([C@H](C)CCCNCCCCCCNc3ccnc4cc(Cl)ccc34)CC[C@@H]12",
    "system": "HepG2 (hepatocellular carcinoma) cell line",
    "SI HepG2/W2": "47/29/25"
  },
  {
    "compound": "CC(=O)O[C@H]1C[C@H]2[C@@H]([C@H](OC(C)=O)C[C@@H]3CC(NCCCNc4ccnc5cc(Cl)ccc45)CC[C@@]32C)[C@@H]2CC[C@H]([C@H](C)CCCNCCCNc3ccnc4cc(Cl)ccc34)[C@@]12C (mixture of isomers)",
    "system": "HepG2 (hepatocellular carcinoma) cell line",
    "SI HepG2/W2": "43/32/24"
  },
  {
    "compound": "CC(=O)O[C@H]1C[C@H]2[C@@H]([C@H](OC(C)=O)C[C@@H]3C[C@H](NS(C)(=O)=O)CC[C@@]32C)[C@@H]2CC[C@H]([C@H](C)CCCNCCNc3ccnc4cc(Cl)ccc34)[C@@]12C",
    "system": "HepG2 (hepatocellular carcinoma) cell line",
    "SI HepG2/W2": "131/301/222"
  },
  {
    "compound": "CC(=O)O[C@H]1C[C@H]2[C@@H]([C@H](OC(C)=O)C[C@@H]3CC(=O)CC[C@@]32C)[C@@H]2CC[C@H]([C@H](C)CCCNCCNc3ccnc4cc(Cl)ccc34)[C@@]12C",
    "system": "HepG2 (hepatocellular carcinoma) cell line",
    "SI HepG2/W2": "299/571/109"
  },
  {
    "compound": "CC(=O)O[C@@H]1CC[C@@]2(C)[C@@H](C1)C[C@@H](OC(C)=O)[C@@H]1[C@@H]2C[C@H](OC(C)=O)[C@]2(C)[C@@H]([C@H](C)CCCNCCCCNc3ccnc4cc(Cl)ccc34)CC[C@@H]12",
    "system": "HepG2 (hepatocellular carcinoma) cell line",
    "SI HepG2/W2": "107/55/47"
  }
]
